Target: ScBzz1-D2
Assay: SPOT peptide array binding signal intensity (averaged, normalized) (arbitrary units (background-subtracted, floor 0; scale differs between SH3 domains)); higher = stronger binding of the SH3 domain to the peptide
MEASURED_ENDPOINT: SPOT peptide array binding signal intensity
Please reply with the number alone, leaving off any unit.

Query string: Using the record for `NENKKLPPAPTVFGL` , report its SPOT peptide array binding signal intensity.
Result string: 6

Query string: What about this binder? `YVRRRPRVRLEPLLS`
Result string: 117

Query string: Check `SNRRPVPRRPSQPLN` too.
Result string: 36.5

Query string: Note, next up: `VKPRQLFPIPLNKVD`
Result string: 135
